# ASSAY: Test Example 2: solubility test in organic solvents
# Type: physicochemical
# ASSAY CONDITIONS: Ethyl acetate; room temperature (23 to 25° C.)
OBSERVATION TYPE: Amount of solvent required to dissolve 100 mg of sample

IN: Consider the compound COc1ccc(/C=C/C(=O)Oc2ccccc2C)cc1 [Example 1, O-tolyl-4-methoxycinnamate] and give its measured Amount of solvent required to dissolve 100 mg of sample.
OUT: < 1 mL

* * *

# ASSAY: Test Example 2: solubility test in organic solvents
# Type: physicochemical
# ASSAY CONDITIONS: Acetone; room temperature (23 to 25° C.)
OBSERVATION TYPE: Amount of solvent required to dissolve 100 mg of sample

IN: Which measured Amount of solvent required to dissolve 100 mg of sample value corresponds to COc1ccc(/C=C/C(=O)Oc2ccccc2C)cc1 [Example 1, O-tolyl-4-methoxycinnamate] ?
OUT: < 1 mL
